- measurement target: RPS10 (Homo sapiens, UniProt P46783)
- Construct: made in house; host or cells: E. coli BL-21
- Format: binding
- condition notes: 1Ai conc. 1 uM
RPS10 fluorescence ratio to control by entry:

compound	measurement target	RPS10 fluorescence ratio to control
Oc1cc(Cl)ccc1Oc1ccc(Cl)cc1Cl [1Ai-6248]	RPS10 (Homo sapiens, UniProt P46783)	0.9786
O=c1cc(CN2CCOCC2)occ1OCCCCCSc1ccnc2cc(C(F)(F)F)ccc12 [1Ai-5730]	RPS10 (Homo sapiens, UniProt P46783)	0.9984
CCOC(=O)c1ccsc1NC(=O)CN1C(=O)NC(C)(c2cccc3ccccc23)C1=O (stereo not drawn) [1Ai-1861]	RPS10 (Homo sapiens, UniProt P46783)	0.9775
